Target: human HLA-A24 and β2-microglobulin (human)
Experiment: MHC-peptide complex formation assay with human HLA-A24 and β2m (procedures of Example 1), sandwich ELISA, relative to positive control peptide
Tick rule met if Relative binding (%) is 60% or greater. Tick rule not met if Relative binding (%) is less than 60%.

Please indicate if the recorded Relative binding (%) for IVEWNVSLF [TAL6 peptide No. 13 of Table 2, …] meets or exceeds 60%.
rule not met

Please indicate if the recorded Relative binding (%) for CYGKCARCI [TAL6 peptide No. 1 of Table 2, …] meets or exceeds 60%.
rule met

Please indicate if the recorded Relative binding (%) for TFASTEGQY [TAL6 peptide No. 9 of Table 2, …] meets or exceeds 60%.
rule not met

Please indicate if the recorded Relative binding (%) for KYASENHLS [TAL6 peptide No. 5 of Table 2, …] meets or exceeds 60%.
rule met

Please indicate if the recorded Relative binding (%) for GGIEFILCLI [TAL6 peptide No. 17 of Table 2, …] meets or exceeds 60%.
rule not met

Please indicate if the recorded Relative binding (%) for GYCVIVAAL [TAL6 peptide No. 8 of Table 2, …] meets or exceeds 60%.
rule met

Please indicate if the recorded Relative binding (%) for EWNVSLFSIL [TAL6 peptide No. 15 of Table 2, …] meets or exceeds 60%.
rule not met

Please indicate if the recorded Relative binding (%) for FFSGIVGGGL [TAL6 peptide No. 7 of Table 2, …] meets or exceeds 60%.
rule met

Please indicate if the recorded Relative binding (%) for QYLLDTSTW [TAL6 peptide No. 11 of Table 2, …] meets or exceeds 60%.
rule met

Please indicate if the recorded Relative binding (%) for GGIEFILCL [TAL6 peptide No. 16 of Table 2, …] meets or exceeds 60%.
rule not met
